Origin of values: patent US6685617B1

target: α4β1 integrin (Jurkat T-cell adhesion to IL-1 stimulated endothelial cell monolayers) (Homo sapiens, UniProt P05556+P13612); construct: a T-cell line, Jurkat, known to express the α4β1 integrin; experiment: Jurkat-endothelial cell adhesion assay (Jurkat EC); details: Jurkat cells on IL-1 stimulated human umbilical vein endothelial cells; read-out: JK/EC (Jurkat EC Assay IC50 value range)
Sequence (P13612 34-1032): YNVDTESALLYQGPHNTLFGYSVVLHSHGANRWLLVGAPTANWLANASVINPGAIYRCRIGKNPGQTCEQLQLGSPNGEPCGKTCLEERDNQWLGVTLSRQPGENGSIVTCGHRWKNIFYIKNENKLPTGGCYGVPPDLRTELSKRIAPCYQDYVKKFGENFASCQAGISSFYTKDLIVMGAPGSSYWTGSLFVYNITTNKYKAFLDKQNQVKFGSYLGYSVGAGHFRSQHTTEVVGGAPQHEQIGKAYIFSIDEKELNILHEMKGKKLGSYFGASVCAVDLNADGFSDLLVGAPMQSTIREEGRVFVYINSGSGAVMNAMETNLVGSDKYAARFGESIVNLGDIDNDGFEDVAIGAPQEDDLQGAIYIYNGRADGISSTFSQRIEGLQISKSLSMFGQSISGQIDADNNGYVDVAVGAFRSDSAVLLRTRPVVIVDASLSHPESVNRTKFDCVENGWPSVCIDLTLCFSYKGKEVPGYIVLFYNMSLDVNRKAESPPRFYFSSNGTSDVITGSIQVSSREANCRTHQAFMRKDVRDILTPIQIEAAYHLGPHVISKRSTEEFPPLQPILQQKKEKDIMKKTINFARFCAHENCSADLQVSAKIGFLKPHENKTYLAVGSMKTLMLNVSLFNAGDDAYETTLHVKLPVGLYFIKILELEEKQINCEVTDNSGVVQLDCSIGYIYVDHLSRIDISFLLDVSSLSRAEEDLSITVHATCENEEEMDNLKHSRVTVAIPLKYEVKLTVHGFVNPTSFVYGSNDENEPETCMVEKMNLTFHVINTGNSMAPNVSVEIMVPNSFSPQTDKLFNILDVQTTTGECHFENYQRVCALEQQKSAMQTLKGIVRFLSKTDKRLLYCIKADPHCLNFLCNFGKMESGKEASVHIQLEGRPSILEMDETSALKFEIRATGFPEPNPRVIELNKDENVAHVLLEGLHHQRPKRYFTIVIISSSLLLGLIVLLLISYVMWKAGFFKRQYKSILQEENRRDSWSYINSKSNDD
Sequence (P05556 21-798): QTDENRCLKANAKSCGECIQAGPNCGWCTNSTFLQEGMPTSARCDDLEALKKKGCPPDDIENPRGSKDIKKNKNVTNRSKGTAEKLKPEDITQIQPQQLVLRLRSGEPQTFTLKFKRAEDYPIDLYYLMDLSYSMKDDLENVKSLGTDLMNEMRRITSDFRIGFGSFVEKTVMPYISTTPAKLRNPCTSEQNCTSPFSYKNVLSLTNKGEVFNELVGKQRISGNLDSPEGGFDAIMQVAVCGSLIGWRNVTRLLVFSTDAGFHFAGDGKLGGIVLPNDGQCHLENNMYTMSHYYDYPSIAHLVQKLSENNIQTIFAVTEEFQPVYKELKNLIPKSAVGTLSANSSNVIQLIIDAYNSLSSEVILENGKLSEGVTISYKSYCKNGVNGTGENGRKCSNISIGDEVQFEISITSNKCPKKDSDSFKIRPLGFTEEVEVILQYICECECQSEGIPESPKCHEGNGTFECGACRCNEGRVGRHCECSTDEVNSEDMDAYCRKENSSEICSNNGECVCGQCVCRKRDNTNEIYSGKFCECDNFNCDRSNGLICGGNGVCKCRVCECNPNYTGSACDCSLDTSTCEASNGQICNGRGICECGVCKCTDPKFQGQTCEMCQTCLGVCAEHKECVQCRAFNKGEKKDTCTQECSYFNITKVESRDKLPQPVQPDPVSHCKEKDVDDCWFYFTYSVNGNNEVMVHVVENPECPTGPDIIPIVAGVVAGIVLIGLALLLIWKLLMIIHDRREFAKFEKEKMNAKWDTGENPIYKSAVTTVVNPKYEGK
pIC50: −log10 of the molar value.
Item-by-item account of pIC50

Determine its reported pIC50: O=C(Nc1ccc(C[C@H](NC(=O)[C@H]2CSCN2C(=O)OCC2c3ccccc3-c3ccccc32)C(=O)O)cc1)c1c(Cl)cccc1Cl (relative stereo)
≥ 6.60

Annotate the molecule O=C(O)c1ccc2cc(C(=O)N3CCC[C@H]3C(=O)N[C@@H](Cc3ccc(NC(=O)c4c(Cl)cccc4Cl)cc3)C(=O)O)ccc2c1 with its measured pIC50.
≤ 6.00

Using known records, supply pIC50 for CCOC(=O)N1CSC[C@@H]1C(=O)N[C@@H](Cc1ccc(OCc2c(Cl)cccc2Cl)cc1)C(=O)OC (relative stereo)
≤ 6.00

Output pIC50 of O=C(O)CNC(=O)N1CCC(C(=O)N[C@@H](Cc2ccc(NC(=O)c3c(Cl)cccc3Cl)cc2)C(=O)O)CC1
≤ 6.00

Read off the recorded pIC50 for CCS(=O)(=O)N1CSC[C@@H]1C(=O)N[C@@H](Cc1ccc(NC(=O)c2c(Cl)cccc2Cl)cc1)C(=O)OC
6.00 to 6.60

Quick one: give measured pIC50 for O=C(Nc1ccc(C[C@H](NC(=O)[C@H]2CCCCN2C(=O)c2cccnc2)C(=O)O)cc1)c1c(Cl)cccc1Cl
≥ 6.60

Read the entry O=C(Nc1ccc(C[C@H](NC(=O)[C@H]2CSCN2S(=O)(=O)c2ccc(C(F)(F)F)cn2)C(=O)O)cc1)c1c(Cl)cccc1Cl and write its reported pIC50.
6.00 to 6.60

Answer with reported pIC50 of O=C(O)c1ccc(NC(=O)N2CCCC(C(=O)N[C@@H](Cc3ccc(NC(=O)c4c(Cl)cccc4Cl)cc3)C(=O)O)C2)cc1 (stereo partly shown)
≤ 6.00

* * *

The entries below come with measured pIC50 values attached.
target: α4β1 integrin (Jurkat cell adhesion to immobilized CS-1 derived peptide CLHPGEILDVPST) (Homo sapiens, UniProt P05556+P13612); construct: 100 μl of Jurkat cells (2.5×10^6 cells/ml) in DMEM plus BSA; experiment: Jurkat-CS-1 assay; settings: Jurkat cells on CS-1 peptide coated plates; read-out: JK/CS-1 (Jurkat CS-1 Assay IC50 value range)
Sequence (P13612 34-1032): as the sequence (P13612 34-1032) above
Sequence (P05556 21-798): as the sequence (P05556 21-798) above
pIC50: −log10 of the molar value.

The examples below pair each entry with its known result.
{"compound": "O=C(O)c1cncc(C(=O)N2CCC[C@@H]2C(=O)N[C@@H](Cc2ccc(NC(=O)c3c(Cl)cccc3Cl)cc2)C(=O)O)c1", "pIC50": "6.12 to 7.30"}
{"compound": "CN1C(=O)CC(C(=O)N[C@@H](Cc2ccc(NC(=O)c3c(Cl)cccc3Cl)cc2)C(=O)O)C1c1ccc2c(c1)OCO2 (stereo partly shown)", "pIC50": "6.12 to 7.30"}
{"compound": "CN(CCc1ccccn1)C(=O)N1CSC[C@@H]1C(=O)N[C@@H](Cc1ccc(NC(=O)c2c(Cl)cccc2Cl)cc1)C(=O)O", "pIC50": "≥ 7.30"}
{"compound": "O=C(O)CNC(=O)N1CCC[C@H]1C(=O)N[C@@H](Cc1ccc(NC(=O)c2c(Cl)cccc2Cl)cc1)C(=O)O", "pIC50": "≤ 6.12"}
{"compound": "COC(=O)[C@H](Cc1ccc(NC(=O)c2c(Cl)cccc2Cl)cc1)NC(=O)[C@H]1CSCN1C(=O)CCCC(=O)O (relative stereo)", "pIC50": "6.12 to 7.30"}

Identify measured pIC50 associated with O=C(O)/C=C/C(=O)N1CSC[C@@H]1C(=O)N[C@@H](Cc1ccc(NC(=O)c2c(Cl)cccc2Cl)cc1)C(=O)O
6.12 to 7.30

Look up and state reported pIC50 for O=C(O)c1ccc2cc(C(=O)N3CCCC(C(=O)N[C@@H](Cc4ccc(NC(=O)c5c(Cl)cccc5Cl)cc4)C(=O)O)C3)ccc2c1 (stereo partly shown)
6.12 to 7.30

Fill in pIC50 for record COC(=O)[C@H](Cc1ccc(NC(=O)c2c(Cl)cccc2Cl)cc1)NC(=O)[C@H]1COCN1C(=O)OCc1ccccc1
≤ 6.12

Answer with the recorded pIC50 of CCOC(=O)N1CSC[C@@H]1C(=O)N[C@@H](Cc1ccc(NC(=O)c2c(Cl)cc(Cl)cc2Cl)cc1)C(=O)O only.
≥ 7.30

Name the recorded pIC50 of the item O=C(O)/C=C/C(=O)N1CCCC[C@H]1C(=O)N[C@@H](Cc1ccc(NC(=O)c2c(Cl)cccc2Cl)cc1)C(=O)O in your answer.
6.12 to 7.30

Give me measured pIC50, please, for this compound: O=C(Nc1ccc(C[C@H](NC(=O)[C@@H]2CSCN2C(=O)C2CCCO2)C(=O)O)cc1)c1c(Cl)cccc1Cl (stereo partly shown)
6.12 to 7.30

* * *

target: α4β1 integrin (Jurkat T-cell adhesion to IL-1 stimulated endothelial cell monolayers) (Homo sapiens, UniProt P05556+P13612); construct: a T-cell line, Jurkat, known to express the α4β1 integrin; test: Jurkat-endothelial cell adhesion assay (Jurkat EC); settings: Jurkat cells on IL-1 stimulated human umbilical vein endothelial cells; read-out: JK/EC (Jurkat EC Assay IC50 value range)
recorded endpoint: IC50

Give recorded IC50. O=C(O)c1cncc(C(=O)N2CCC[C@@H]2C(=O)N[C@@H](Cc2ccc(NC(=O)c3c(Cl)cccc3Cl)cc2)C(=O)O)c1 [Example 257]
250 to 1000 nM

Write down IC50 measured for item O=C(O)c1cncc(C(=O)N2CCCC[C@H]2C(=O)N[C@@H](Cc2ccc(NC(=O)c3c(Cl)cccc3Cl)cc2)C(=O)O)c1 [Example 172]
≤ 250 nM

Identify measured IC50 corresponding to COC(=O)[C@H](Cc1ccc(NC(=O)c2c(Cl)cccc2Cl)cc1)NC(=O)[C@H]1CSCN1C(=O)OCCN1CCOCC1 (relative stereo) [Example 24]
250 to 1000 nM

Please report the measured IC50 for COC(=O)CCC(=O)N1CSC[C@@H]1C(=O)N[C@@H](Cc1ccc(NC(=O)c2c(Cl)cccc2Cl)cc1)C(=O)OC (relative stereo) [Example 8]
250 to 1000 nM

Provide one value: measured IC50 of CC(C)(CC(=O)O)CC(=O)N1CCCC(C(=O)N[C@@H](Cc2ccc(NC(=O)c3c(Cl)cccc3Cl)cc2)C(=O)O)C1 (stereo partly drawn) [Example 196]
≥ 1000 nM

Find the measured IC50 of O=C(O)c1ccccc1C(=O)N1CCCC[C@H]1C(=O)N[C@@H](Cc1ccc(NC(=O)c2c(Cl)cccc2Cl)cc1)C(=O)O [Example 181] and report it.
≥ 1000 nM

* * *

molecular target: α4β1 integrin (Jurkat T-cell adhesion to IL-1 stimulated endothelial cell monolayers) (Homo sapiens, UniProt P05556+P13612); construct: a T-cell line, Jurkat, known to express the α4β1 integrin; host or cells: Jurkat T-cell line; experiment: Jurkat-endothelial cell adhesion assay (Jurkat EC); format: cell-based; conditions: Jurkat cells on IL-1 stimulated human umbilical vein endothelial cells; read-out: JK/EC (Jurkat EC Assay IC50 value range)
pIC50: −log10 of the molar value.
recorded endpoint: pIC50

{"molecule": "O=C(Nc1ccc(C[C@H](NC(=O)[C@H]2CSCN2C(=O)OCc2ccccn2)C(=O)O)cc1)c1c(Cl)cccc1Cl (relative stereo)", "recorded endpoint": "pIC50", "test result": "≥ 6.60"}

Please report pIC50 for the following molecule: COC(=O)[C@H](Cc1ccc(NC(=O)c2c(Cl)cccc2Cl)cc1)NC(=O)[C@@H]1CSCCN1C(=O)CCc1nnn[nH]1
≤ 6.00

Give me measured pIC50, please, for this molecule: O=C(CCC1(C(=O)O)CCC(=O)N1)N[C@@H](Cc1ccc(OCc2c(Cl)cccc2Cl)cc1)C(=O)O (stereo partly drawn)
≤ 6.00

Name the recorded pIC50 of the item CCS(=O)(=O)N1CSC[C@@H]1C(=O)N[C@@H](Cc1ccc(NC(=O)c2c(Cl)cccc2Cl)cc1)C(=O)O in your answer.
≥ 6.60

Tell me its pIC50 given O=C(Nc1ccc(C[C@H](NC(=O)[C@H]2CSCN2C(=O)OC23CC4CC(CC(C4)C2)C3)C(=O)O)cc1)c1c(Cl)cccc1Cl (relative stereo) as the entry.
≥ 6.60

Provide pIC50 value for the following molecule: O=C(O)c1cccc(C(=O)N2CCCC(C(=O)N[C@@H](Cc3ccc(NC(=O)c4c(Cl)cccc4Cl)cc3)C(=O)O)C2)c1 (stereo partly drawn)
6.00 to 6.60

* * *

molecular target: α4β1 integrin (Jurkat T-cell adhesion to IL-1 stimulated endothelial cell monolayers) (Homo sapiens, UniProt P05556+P13612); construct: a T-cell line, Jurkat, known to express the α4β1 integrin; assay: Jurkat-endothelial cell adhesion assay (Jurkat EC); conditions: Jurkat cells on IL-1 stimulated human umbilical vein endothelial cells; read-out: JK/EC (Jurkat EC Assay IC50 value range)
pIC50: −log10 of the molar value. Where a name gives a salt, the structure may show the parent alone.
// pIC50 lookup, one value per entry

Solved entries:
{"compound": "CC1(C)N[C@H](C(=O)N[C@@H](Cc2ccc(NC(=O)c3c(Cl)cccc3Cl)cc2)C(=O)O)CS1", "pIC50": "6.00 to 6.60"}
{"compound": "N#CCCC(=O)N1CCSC[C@H]1C(=O)N[C@@H](Cc1ccc(NC(=O)c2c(Cl)cccc2Cl)cc1)C(=O)O", "pIC50": "≤ 6.00"}
{"compound": "O=C(Nc1ccc(C[C@H](NC(=O)[C@@H]2CSCN2C(=O)C2CCCO2)C(=O)O)cc1)c1c(Cl)cccc1Cl (stereo partly shown)", "pIC50": "≥ 6.60"}
{"compound": "COC(=O)[C@@H](Cc1ccc(NC(=O)c2c(Cl)cccc2Cl)cc1)NC(=O)[C@H]1CSCN1C(=O)OC(C)(C)C (stereo in doubt)", "pIC50": "≤ 6.00"}
{"compound": "O=C(Nc1ccc(C[C@H](NC(=O)[C@@H]2CCCCN2C(=O)C2CCCO2)C(=O)O)cc1)c1c(Cl)cccc1Cl (stereo partly shown)", "pIC50": "≥ 6.60"}
{"compound": "O=C(O)CCC(=O)N1CCCC(C(=O)N[C@@H](Cc2ccc(NC(=O)c3c(Cl)cccc3Cl)cc2)C(=O)O)C1 (stereo partly shown)", "pIC50": "6.00 to 6.60"}

Fill in reported pIC50 for this entry: COC(=O)[C@H](Cc1ccc(NC(=O)c2c(Cl)cccc2Cl)cc1)NC(=O)[C@H]1CSC(C)(C)N1C(C)=O
≤ 6.00

# return recorded pIC50 for entry CC1(C)SCN(C(=O)CCC(=O)O)[C@H]1C(=O)N[C@@H](Cc1ccc(NC(=O)c2c(Cl)cccc2Cl)cc1)C(=O)O (relative stereo)
≥ 6.60

Recall and state the measured pIC50 for O=C(NO)[C@H](Cc1ccc(OCc2c(Cl)cccc2Cl)cc1)NC(=O)[C@H]1CSCN1C(=O)OCCN1CCCCC1 .
≤ 6.00

Return pIC50 (reported value) for this compound: O=C(Nc1ccc(C[C@H](NC(=O)[C@@H]2CCCCN2C(=O)c2cc(O)c3ccccc3n2)C(=O)O)cc1)c1c(Cl)cccc1Cl
≤ 6.00

For COC(=O)[C@H](Cc1ccc(NC(=O)c2c(Cl)cccc2Cl)cc1)NC(=O)[C@H]1CSCN1C(=O)N(C)CCc1ccccn1 , write its pIC50.
≤ 6.00

Answer with the recorded pIC50 for the compound listed here: COC(=O)[C@H](Cc1ccc(OCc2c(Cl)cccc2Cl)cc1)NC(=O)[C@H]1CSCN1C(=O)OCCN1CCCC1 (relative stereo)
≥ 6.60

Given O=C(Nc1ccc(C[C@H](NC(=O)[C@@H]2CCN2)C(=O)O)cc1)c1c(Cl)cccc1Cl [Example 144, Trifluoroacetic acid Salt] , respond with its pIC50.
≤ 6.00
